- experiment: Cytotoxicity against human Raji cells assessed as cell viability at 1000 molar ratio
- Assay type: cell-based
- settings: read-out: Activity
// values below are reported viability at 1000 molar ratio
measured_property: viability at 1000 molar ratio (%)

molecule=COCc1c(O)cc2c(c1O)C(=O)c1cccc(O)c1C2=O censoring_sign=> reported=80
molecule=CN(C)C1=CC(=O)c2c(O)cccc2C1=O censoring_sign=> reported=80
molecule=CN(C)C1=CC(=O)c2ccccc2C1=O censoring_sign=> reported=80
molecule=COc1cccc2c1C(=O)c1ccc3c(c1C2=O)OCO3 censoring_sign=> reported=80
molecule="Cc1ccnc2c1C(=O)c1ccccc1C2=O [CLEISTOPHOLINE]" censoring_sign== reported=70
molecule="O=C1c2ccc(O)cc2C(=O)c2ccc(O)cc21 [ANTHRAFLAVICACID]" censoring_sign=> reported=80
molecule="O=C1c2ccccc2C(=O)c2sccc21 [THIOPHENONAPHTHOQUINONE]" censoring_sign== reported=0
molecule=CN(C)C1=CC(=O)c2cccc(O)c2C1=O censoring_sign=> reported=80
molecule="O=C1c2ccc(O)c(O)c2C(=O)c2c(O)ccc(O)c21 [QUINALIZARIN]" censoring_sign== reported=40
molecule=COCc1c(O)cc2c(c1O)C(=O)c1ccccc1C2=O censoring_sign== reported=60
molecule="Cc1cc(O)c2c(c1)C(=O)c1cc(O)cc(O)c1C2=O [EMODIN]" censoring_sign=> reported=80
molecule="CC1=C(C/C=C(\\C)CCC[C@H](C)CCC[C@H](C)CCCC(C)C)C(=O)c2ccccc2C1=O [PHYTONADIONE]" censoring_sign== reported=70
molecule="Cc1ccnc2c1C(O)c1ccccc1-2 (stereo not drawn)" censoring_sign=> reported=80
molecule=CC1(c2cc3c(o2)C(=O)c2ccccc2C3=O)OCCO1 censoring_sign== reported=0
molecule="COc1c(CO)c(O)cc2c1C(=O)c1cccc(O)c1C2=O [JUZUNOL]" censoring_sign=> reported=80
molecule=COc1cccc2c1C(=O)c1ncc(C)cc1C2=O censoring_sign=> reported=80
molecule="Cc1ccnc2c1C(=O)c1ccccc1-2 [ONYCHINE]" censoring_sign== reported=70
molecule="CC1=CC(=O)c2ccccc2C1=O [MENADIONE]" censoring_sign== reported=0

###

- experiment: Cytotoxicity against human Raji cells assessed as cell viability at 500 molar ratio
- Format: cell-based
- settings: read-out: Activity
// values below are reported viability at 500 molar ratio
measured_property: viability at 500 molar ratio

compound=COCc1c(O)cc2c(c1O)C(=O)c1ccccc1C2=O reported="> 80%"
compound=COc1cccc2c1C(=O)c1ncc(C)cc1C2=O reported="> 80%"
compound="O=C1c2ccc(O)cc2C(=O)c2ccc(O)cc21 [ANTHRAFLAVICACID]" reported="> 80%"
compound=CN(C)C1=CC(=O)c2c(O)ccc(O)c2C1=O reported="> 80%"
compound="COc1c(C=O)c(O)cc2c1C(=O)c1ccccc1C2=O [DAMNACANTHAL]" reported="> 80%"
compound="CC1=CC(=O)c2ccccc2C1=O [MENADIONE]" reported=0%
compound="O=C1C=CC(=O)c2c(O)cccc21 [JUGLONE]" reported=60%
compound="COc1c(CO)c(O)cc2c1C(=O)c1ccccc1C2=O [DAMNACANTHOL]" reported="> 80%"
compound="Cc1cc(O)c2c(c1)C(=O)c1cc(O)cc(O)c1C2=O [EMODIN]" reported="> 80%"
compound=Cc1ccnc2c1C(=O)c1cc(O)ccc1C2=O reported=60%
compound=CN(C)C1=CC(=O)c2cccc(O)c2C1=O reported="> 80%"
compound=COc1cccc2c1C(=O)c1c(ccc3c1OCO3)C2=O reported="> 80%"
compound=Cc1cnc2c(c1)C(=O)c1c(O)ccc(O)c1C2=O reported=50%

Data provenance: ChEMBL document CHEMBL1147306
